- target_of_assay: T1, 15-mer peptide LGIWGCSGKLICTTT (SEQ ID NO:1) (HIV, not fully specified; cysteine pairing not given here)
- T1 construct: also called U1731DB060-1; U173DB060-1
- T1 peptide: LGIWGCSGKLICTTT
- assay_text: indirect ELISA; 15-mer peptide coated 1 ug/ml in DTT; antibody at 1000 ng/ml
No end group written: not given here.
endpoint_label: ELISA OD (OD)
Please reply with the bare figure in OD and do not write the unit itself.

[[record]]
binder = "HIV-binding peptide #4 (antibody, human IgG1, kappa, V domains shown, Recombinant, fully human immunoglobulin; also called U1205DB020-4) VH: QVQLQESGGGVVQPGRSLRLSCAASGFTFSSYAIHWVRQAPGKGLEWVAVISYDGSNRYYADSVKGRFTISRDNSKNTLYLQMNSLRPEDTAVYYCARDRFSAVASTPTYHNYFYMDVWGKGTTVTVSS VL: DIQMTQSPSSLSASVGDRVTITCQASQDINNYLAWYQQKPGQAPRLLIYDASNLETGVPSRFSGSGSGTDFTLTISSLQPEDLATYYCQQYDNLPYTFGQGTKLEIKR"
endpoint_label = "ELISA OD"
numeric_value = 0.07

[[record]]
binder = "HIV-binding peptide #3 (antibody, human IgG1, kappa, V domains shown, Recombinant, fully human immunoglobulin; also called U1205DB020-3) VH: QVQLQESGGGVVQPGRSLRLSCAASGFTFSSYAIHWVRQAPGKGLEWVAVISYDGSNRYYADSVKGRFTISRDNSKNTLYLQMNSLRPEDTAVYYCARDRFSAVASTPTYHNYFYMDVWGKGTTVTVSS VL: DIQMTQSPSSLSASVGDRVTITCQASQDVNNYLAWYQQKPGQAPRLLIYDASNLETGVPSRFSGSGSGTDFTLTISSLQPEDLATYYCQQYDNLPYTFGQGTKLEIKR"
endpoint_label = "ELISA OD"
numeric_value = 0.072


Provide only the value of recorded ELISA OD for HIV-binding peptide #11Q (antibody, V domains shown, Heavy chain only with variant CH1/CH2 (hinge cysteines replaced by serines)) VH: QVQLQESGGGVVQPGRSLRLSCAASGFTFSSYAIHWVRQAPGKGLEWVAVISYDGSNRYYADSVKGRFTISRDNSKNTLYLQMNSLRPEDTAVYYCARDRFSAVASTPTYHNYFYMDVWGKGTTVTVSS 0.441
